This section presents binders with their documented Binding to 1 nM KDR, % values.
biological target: T1, human vascular endothelial growth factor receptor-2 Fc chimera (KDR-Fc) (human, UniProt P35968 20-764); test: radioactive equilibrium binding, 1 nM KDR-Fc
T1 construct: range 1-764; purchased from R&D Systems; also called hKDR; human VEGF-R2-Fc; not shown: human IgG1 Fc
T1 sequence (P35968 20-764 limits assumed, change not shown, form in doubt): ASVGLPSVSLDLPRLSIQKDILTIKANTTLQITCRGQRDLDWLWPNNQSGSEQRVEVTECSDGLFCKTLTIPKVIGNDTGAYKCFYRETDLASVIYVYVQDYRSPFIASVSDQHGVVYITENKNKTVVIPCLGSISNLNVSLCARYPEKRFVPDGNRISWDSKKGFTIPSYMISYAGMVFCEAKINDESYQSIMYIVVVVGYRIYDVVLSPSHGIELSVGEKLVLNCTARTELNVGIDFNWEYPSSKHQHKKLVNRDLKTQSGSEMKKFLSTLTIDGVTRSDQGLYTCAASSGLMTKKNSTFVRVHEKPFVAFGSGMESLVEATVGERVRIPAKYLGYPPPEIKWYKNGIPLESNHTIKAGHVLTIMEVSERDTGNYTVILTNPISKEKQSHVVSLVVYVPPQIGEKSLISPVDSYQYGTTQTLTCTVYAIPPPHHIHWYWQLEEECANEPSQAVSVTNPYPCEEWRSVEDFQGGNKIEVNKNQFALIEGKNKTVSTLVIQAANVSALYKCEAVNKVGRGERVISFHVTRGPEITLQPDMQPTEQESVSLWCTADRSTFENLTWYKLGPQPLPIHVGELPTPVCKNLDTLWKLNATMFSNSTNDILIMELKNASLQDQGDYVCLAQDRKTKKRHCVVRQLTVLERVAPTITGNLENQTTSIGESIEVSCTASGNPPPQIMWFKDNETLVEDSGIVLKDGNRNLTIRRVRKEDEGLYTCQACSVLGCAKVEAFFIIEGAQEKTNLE
Your answer should be a plain number; it is taken to be in %.

Any idea what Binding to 1 nM KDR, % was measured for 1′DelB10 PR4 (designed binder, tag left out) EVVAATPTSLLISWRHPHFPTRYYRITYGETGGNSPVQEFTVPLQPPTATISGLKPGVDYTITGYAVTVARNDHELMTPISINYRT ?
11

Next:
Any idea what Binding to 1 nM KDR, % was measured for 2D12 PR3 (designed binder, tag left out) VSDVPRDLEVVAATPTSLLISWRHPHFPTRYYRITYGETGGNSPVQEFTVPLQPPTATISGLKPGVDYTITGYAVTEGWIDHEIMIPISINYRT ?
14
